system: HT29 colon; test: NCI tumour cell line growth inhibition, 48 h
TGI values, listed per item
measurement kind: TGI (µM)

• COc1ccc2[nH]c(S(=O)(=O)N3CC(CCl)c4ccc(N)cc43)cc2c1 (configuration not stated) = 4.69
• CC(C)(CN1CCCCC1)C(/C=C/c1ccc(Cl)c(Cl)c1)=N\NC(=O)N/N=C(/C=C/c1ccc(Cl)c(Cl)c1)C(C)(C)CN1CCCCC1 = 1.25
• CCN(CC)CCOc1ccc(N2C(=O)c3cccc4cc([N+](=O)[O-])cc(c34)C2=O)cc1 = 18.3
• [C-]#[N+][C@@H]1C2[C@H](CC[C@@]1(C)O)C(=C)CC[C@@H]2[C@@]1(C)CC[C@H](Cl)C(C)(C)O1 (some centres not stated) = 29.8
• O=C1C=CC(=O)N1C1CCCCCCCCCCC1 = 26.4
• Cc1cc(S(=O)(=O)n2ccnc2Oc2cccc(Cl)c2)c(SSc2cc(Cl)c(C)cc2S(=O)(=O)n2ccnc2Oc2cccc(Cl)c2)cc1Cl = 48.5
• CSC1=NN(c2ccccc2)C(=O)C1=C(SC)SC = 43.5
• CN1CCN(CCCOc2ccc3nc(Nc4cc(Cl)cc(Cl)c4)ccc3c2)CC1 = 1.84
